system: Hepatocarcinoma HepG2; assay: Safety, MTT test in HepG2; format: cell-based; settings: 150 µM; 48 hours
EXPERIMENTAL_READOUT: Hepatocarcinoma HepG2 MTT

Hepatocarcinoma HepG2 MTT for "O=C(/C=C/c1ccc(Cl)cc1)NCCCCCO" ?
97.87±3.27 % of solvent control

# repeat for "O=C(/C=C/c1ccc(Cl)cc1)NCCCO"
100.44±3.93 % of solvent control

# repeat for "Cc1ccc(/C=C/C(=O)NCCCCCO)cc1"
99.54±5.74 % of solvent control

Consider the following items and state reported Hepatocarcinoma HepG2 MTT for each.
1. O=C(/C=C/c1ccccc1)NCCCCCO
2. O=C(/C=C/c1ccc(Cl)cc1)NCCO

["100.66±7.39 % of solvent control", "98.44±3.94 % of solvent control"]

Values from patent EP4324461A1
